Hey, just so you know, these numbers are from PubChem BioAssay AID488890.

- procedure_details: growth inhibition of non-replicating M. tuberculosis (AID 488890);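 also: plate controls were DMSO cells for no effect and high antibiotic wells for full effect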
- condition_set: Mycobacterium tuberculosis non-replicating, at 25 µM, stronger effect = higher value
About 1,300 (0.41%) of roughly 320,000 compounds were called active. Inconclusive results (about 3%) are left out. Not all results are given here. Entries with a potency or affinity are not part of this list.
Mark Condition not met for inhibition values under 10%, and Condition met for everything at or above.

Example results:
[[record]]
molecule = "Cc1ccc2nnc(Cl)n2n1"
class_name = "Condition not met"

[[record]]
molecule = "NS(=O)(=O)c1ccc(NC(=O)COC(=O)c2cc(Cl)ccc2[N+](=O)[O-])cc1"
class_name = "Condition met"

[[record]]
molecule = "CC(=O)Nc1nnc(SCC(=O)NCc2ccc3c(c2)OCO3)s1"
class_name = "Condition not met"

[[record]]
molecule = "O=C(COC(=O)Cc1ccsc1)Nc1ccc(Cl)cc1F"
class_name = "Condition met"


Can CCOc1ccccc1N/C=C/C(=O)C(C)(C)C be said to have inhibition at or above 10%? Condition not met

Form field: inhibition at least 10%? Entry: CC(C)(C)NC(=O)COC(=O)c1cc(Cl)ccc1[N+](=O)[O-] Condition met

Decide: inhibition of CC1C/C(=N\NC(=O)c2ccc(NS(=O)(=O)c3ccc(Br)cc3)cc2)CC(C)(C)C1 (stereo not given) >= 10%? Condition not met

Check the entry O=C1CCc2cc(S(=O)(=O)NCc3ccc(F)cc3)cc3c2N1CCC3 : does inhibition equal or exceed 10%? Condition met

Check if inhibition >= 10% (inclusive). Item: CCOC(=O)N1CCC(NC(=O)CN(C)S(=O)(=O)c2cc3c(cc2Cl)NC(=O)CO3)CC1 Condition met

Please check the record S=c1[nH]nc(Cc2ccc(Cl)cc2)n1-c1ccc2c(c1)OCCO2 and state if its inhibition is at or above 10%. Condition not met

Say whether Cc1[nH]ccc(=O)c1OCC(=O)O shows inhibition of 10% or more. Condition not met

Assess whether reported inhibition for O=[N+]([O-])c1cccc(-c2csc(N/N=C/c3cccc(O)c3)n2)c1 sits at 10% or higher. Condition not met

Is it the case that CC(C)c1ccc(NC2CCCN(C(=O)c3ccc(Cn4cnnn4)cc3)C2)cc1 (stereo not given) has inhibition reaching or exceeding 10%? Condition met

# bool: inhibition of Cc1ccc(C)c(NC(=S)NCCc2c[nH]c3ccccc23)c1 >= 10% Condition met

Given the entry Cc1ccc(N(Cc2cc3ccc(C)cc3[nH]c2=O)S(=O)(=O)c2ccccc2)c(C)c1 , answer whether its inhibition meets or surpasses 10%. Condition not met

Hi team, for CNCc1ccccc1OCc1ccccc1F , is the recorded inhibition at or above 10%? Condition not met

* * *

- procedure_details: growth inhibition of non-replicating M. tuberculosis (AID 488890)
- condition_set: Mycobacterium tuberculosis non-replicating, at 25 µM, stronger effect = higher value
The whole screen tested about 320,000 compounds, of which about 1,300 (0.41%) were called active. Roughly 3% stayed inconclusive and do not appear here. Only a sample is shown. Entries with a potency or affinity are not part of this list.
Kindly return Y if reported inhibition is no lower than 30%; return N if it is lower.

See these solved cases before continuing.
[[record]]
compound = "O=C(COc1ccccc1)Nc1ccc(Cl)cc1Cl"
class_name = "Y"

[[record]]
compound = "O=C(CCS(=O)(=O)Cc1ccccc1)Nc1nncs1"
class_name = "Y"

[[record]]
compound = "CCOC(=O)Nc1ccc2c(c1)Sc1ccccc1N2C(=O)CCN1CCOCC1"
class_name = "Y"


Given the entry CCOC(=O)c1nc(C)nc(Sc2n[nH]c(-c3cc(C(F)(F)F)cc(C(F)(F)F)c3)n2)c1C , answer whether its inhibition meets or surpasses 30%. Y

inhibition >= 30% for Cc1cccc(C(=O)NCCC(=O)Nc2ccc(C#N)cc2)c1 ? N

Assess whether reported inhibition for O=C(CNC(=O)c1ccc(Cl)cc1)NC1CCCCC1 sits at 30% or higher. N

Assess whether reported inhibition for CCNC(=O)CSc1nnc(-c2cccs2)o1 sits at 30% or higher. Y

# bool: inhibition of CC(Cc1cccs1)NC(=O)c1cccs1 (centres undefined) >= 30% Y

* * *

- procedure_details: growth inhibition of non-replicating M. tuberculosis (AID 488890)
- condition_set: Mycobacterium tuberculosis non-replicating, at 25 µM, stronger effect = higher value
The campaign covered roughly 320,000 compounds. About 1,300 (0.41%) were called active. Not shown: some 3% with an inconclusive outcome. These entries were drawn from the full list. Entries with a potency or affinity are not part of this list.
measured_property: inhibition (%)
Please reply with the bare figure in % and do not write the unit itself.

See these solved cases before continuing.
[[record]]
substance_smiles = "O=C(C[n+]1cc(-c2ccc(Cl)cc2)n2c1CCCCC2)c1ccccc1"
data_value = -12.8

[[record]]
substance_smiles = "COC(=O)Cn1cc(C#N)c2ccccc21"
data_value = 51.2


Lab note: next compound to report on.
# get_value(readout='inhibition', item= NC1=NC(=O)/C(=C/c2ccc(-c3ccc(S(N)(=O)=O)cc3)o2)S1 ) -4.9

* * *

- procedure_details: growth inhibition of non-replicating M. tuberculosis (AID 488890);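 also: plate controls were DMSO cells for no effect and high antibiotic wells for full effect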
- condition_set: Mycobacterium tuberculosis non-replicating, at 25 µM, stronger effect = higher value
Screen size: about 320,000 compounds; about 1,300 (0.41%) were called active. About 3% were inconclusive and are not listed. Not all results are given here. Potency and affinity values are given separately.
# inhibition per entry
Just the number please, in %, no unit attached.

Answered cases to consult:
[[record]]
compound = "Cc1ccc(NC(=O)OCCNC(=O)OC(C)C)cc1"
measured_property = "inhibition"
data_value = 13.6

[[record]]
compound = "CN(c1ccccc1)S(=O)(=O)c1ccc(NC(=S)NC(=O)C2CC2)cc1"
measured_property = "inhibition"
data_value = -18.9

[[record]]
compound = "Cc1cc(C)cc(OCc2nnc(SCC(=O)c3ccccc3)o2)c1"
measured_property = "inhibition"
data_value = -6.78

[[record]]
compound = "CCCn1c(N)c(C(=O)CSc2nc3ccccc3c(=O)n2Cc2ccccc2)c(=O)[nH]c1=O"
measured_property = "inhibition"
data_value = 21


Can you look up the measured inhibition of COc1ccccc1N(CC(=O)NCC1CCCO1)C(=O)CCC(=O)Nc1nccs1 (stereo unspecified) for me? 1.91

Dear colleague, I am looking for the recorded inhibition of the following compound: Cc1cc(C)n2nc(CNS(=O)(=O)c3ccc(CC(C)C)cc3)nc2n1 7.85

* * *

- procedure_details: growth inhibition of non-replicating M. tuberculosis (AID 488890);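 also: plate controls were DMSO cells for no effect and high antibiotic wells for full effect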
- condition_set: Mycobacterium tuberculosis non-replicating, at 25 µM, stronger effect = higher value
In all, about 320,000 compounds went through this assay and about 1,300 (0.41%) were called active. Roughly 3% stayed inconclusive and do not appear here. A selection follows. Measured potencies and affinities stand elsewhere.
criterion met means recorded inhibition is 10% or above; criterion not met means it is below 10%.

[[record]]
compound = "COc1ccc2[nH]c(=O)c(CN(C(=O)c3cccnc3)c3ccc(C)c(C)c3)cc2c1"
class_name = "criterion not met"


Can CC1=C(CCN2CCN(C3CCCC3)C(CCO)C2)C(C)(C)CCC1 (stereo not given) be said to have inhibition at or above 10%? criterion met

Quick check: does CCN(C(=O)COn1nnc2ccc(S(=O)(=O)N(C)C)cc21)C1CCS(=O)(=O)C1 (stereo not given) have inhibition greater than or equal to 10%? criterion not met

Is it the case that CCOc1ccccc1NC(=O)CCS(=O)(=O)c1cccs1 has inhibition reaching or exceeding 10%? criterion not met

inhibition >= 10% for O=C1c2ccccc2C(=O)N1c1cc([N+](=O)[O-])ccn1 ? criterion not met

Is the recorded value of inhibition equal to or greater than 10% for this compound? O=C1c2ccc([N+](=O)[O-])cc2C(=O)N1c1ccc(Cl)cn1 criterion not met

Form field: inhibition at least 10%? Entry: CCCCn1c(SCC(=O)NCc2ccco2)nc2cc(S(N)(=O)=O)ccc21 criterion not met

Could you tell me if the measured inhibition of CC(=O)Nc1cccc2c1C(=O)N(c1ccc(OC(C)=O)cc1)C2=O reaches 10% or more? criterion met

Say whether CN(Cc1cccs1)S(=O)(=O)c1ccc(Cl)cc1F shows inhibition of 10% or more. criterion met

hey, is inhibition for this one >= 10%? COc1ccc(-c2nnn(CC(=O)N(C3CCCCC3)C(C)C(=O)NC3CCCC3)n2)cc1OC (stereo not given) criterion met

Determine whether this compound has inhibition no lower than 10%: Cc1ccc(OCCCC(=O)NCc2ccco2)cc1 criterion met

* * *

# Lookup of reported inhibition keyed by entry
- procedure_details: growth inhibition of non-replicating M. tuberculosis (AID 488890);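 also: plate controls were DMSO cells for no effect and high antibiotic wells for full effect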
- condition_set: Mycobacterium tuberculosis non-replicating, at 25 µM, stronger effect = higher value
Out of some 320,000 compounds screened, about 1,300 (0.41%) were called active. Roughly 3% stayed inconclusive and do not appear here. Only a sample is shown. Measured potencies and affinities stand elsewhere.
Your answer is read as %, so omit the unit and give the number.

Examples with their reported inhibition follow.
[[record]]
substance_smiles = "COc1ccc(C(=O)NCCC2=CCCCC2)cc1"
measured_property = "inhibition"
data_value = 71.4

[[record]]
substance_smiles = "CCCn1nnc(NC(=O)COc2ccccc2Cl)n1"
measured_property = "inhibition"
data_value = 67.3

[[record]]
substance_smiles = "CCOC(=O)c1cccc(-n2cccc2/C=C2\\NC(=O)N(CC(=O)O)C2=O)c1"
measured_property = "inhibition"
data_value = -4.64

[[record]]
substance_smiles = "N#Cc1ccc(COC(=O)c2cccnc2Cl)cc1"
measured_property = "inhibition"
data_value = 57

[[record]]
substance_smiles = "O=C(NCCc1ccccc1)c1ccc(Br)o1"
measured_property = "inhibition"
data_value = 73.4

[[record]]
substance_smiles = "O=C(NCCC1=CCCCC1)c1ccc(Cl)cc1"
measured_property = "inhibition"
data_value = 76.5


Now, please, on to the next compound.
Give the measured inhibition of CCCCn1nnc(NC(=O)COc2cc(C)ccc2C(C)C)n1 . 64
